Tested on: Trichoderma viride
Experiment: Antimicrobial activity against Hypocrea rufa ATCC 52440 assessed as growth inhibition by broth dilution method
Format: functional
Measured property: MIC (µg/mL)
Respond numerically; units are µg/mL and should not be typed.

Here is how some molecules turned out for MIC.
# Molecule, MIC (µg/mL)
measured = [
    ("O=C(CCl)N1CCN(CCN2C(=O)C(Cl)C2c2ccco2)CC1 (configuration not stated)", 300),
    ("COc1cc(C2SCC(=O)N2CCN2CCNCC2)ccc1O (configuration not stated)", 18.8),
    ("O=C1CSC(c2ccccc2)N1CCN1CCNCC1 (configuration not stated)", 75),
]

Record summary for O=C1CSC(c2ccccc2O)N1CCN1CCNCC1 (configuration not stated) : reported MIC = 300

Record summary for COc1ccc(C2C(Cl)C(=O)N2CCN2CCN(C(=O)CCl)CC2)cc1 (configuration not stated) : reported MIC = 18.8

Record summary for O=C(CCl)N1CCN(CCN2C(=O)C(Cl)C2c2ccc(O)cc2)CC1 (configuration not stated) : reported MIC = 9.37

Record summary for O=C(CCl)N1CCN(CCN2C(=O)C(Cl)C2c2ccccc2)CC1 (configuration not stated) : reported MIC = 75
